Tested on: Streptococcus pyogenes
Experiment: In vitro antibacterial activity against Streptococcus pyogenes 308A by agar dilution method using Mueller-Hinton
Assay type: functional
quantity.measured: MIC (ng/mL)
Write the answer as a number in ng/mL, unit excluded.

Some solved cases for reference:
compound=C[C@@H](O)[C@H]1C(=O)N2C(C(=O)O)=C(S[C@@H]3CN[C@H](CSc4nnnn4-c4ccncc4)C3)[C@H](C)[C@H]12 recorded_value=7
compound=C[C@@H](O)[C@H]1C(=O)N2C(C(=O)O)=C(S[C@@H]3CN[C@H](CSc4nnnn4-c4ccccc4)C3)[C@H](C)[C@H]12 recorded_value=7
compound="C[C@@H](O)[C@H]1C(=O)N2C(C(=O)O)=C(S[C@@H]3CN[C@H](C(=O)N(C)C)C3)[C@H](C)[C@H]12 [MEROPENEM]" recorded_value=13
compound=C[C@@H](O)[C@H]1C(=O)N2C(C(=O)O)=C(S[C@@H]3CN[C@H](CSc4nnnn4CC(=O)N(C)C)C3)[C@H](C)[C@H]12 recorded_value=13
compound=C[C@@H](O)[C@H]1C(=O)N2C(C(=O)[O-])=C(S[C@@H]3CN[C@H](CSc4nnnn4CC[N+](C)(C)C)C3)[C@H](C)[C@H]12 recorded_value=25

// next item, MIC requested
Please look up its MIC: C[C@@H](O)[C@H]1C(=O)N2C(C(=O)O)=C(S[C@@H]3CN[C@H](CSc4nnnn4CCN(C)C)C3)[C@H](C)[C@H]12 13
